target: PD-1/PD-L1 interaction (PD-1-Ig / PD-L1-His) (Homo sapiens, UniProt Q9NZQ7); construct: hPDL1(18-239)-TVMV-His; TVMV protease site linker (C); made in house; host or cells: HEK293T; experiment: PD-1/PD-L1 Homogenous Time-Resolved Fluorescence (HTRF) binding assay; settings: IC50 range class; PD-L1-His 10 nM, PD-1-Ig 20 nM; read-out: Range or IC50
Sequence (Q9NZQ7 with tags, fused parts or gaps): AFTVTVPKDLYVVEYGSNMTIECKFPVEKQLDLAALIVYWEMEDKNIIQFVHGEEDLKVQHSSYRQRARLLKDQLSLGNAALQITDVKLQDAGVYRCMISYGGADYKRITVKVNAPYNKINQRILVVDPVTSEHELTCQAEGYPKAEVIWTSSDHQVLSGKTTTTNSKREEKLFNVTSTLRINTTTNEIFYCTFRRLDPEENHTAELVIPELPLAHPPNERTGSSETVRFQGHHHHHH
pIC50: −log10 of the molar value.
assay-endpoint: pIC50

Query :: Requested read-out: pIC50. Entry: N#Cc1cncc(COc2cc(OCc3cccc(-c4cccc(COc5cc(OCc6cncc(C#N)c6)c(C(=O)NC6COC6)cc5Cl)c4Cl)c3Cl)c(Cl)cc2C(=O)NC2COC2)c1 [Example 80180]
Result :: 5.00 to 6.00

***
Query :: Requested read-out: pIC50. Entry: Cc1c(OCCCNC[C@H](O)CO)cccc1-c1cccc(OCCCN2CCC[C@H](C(=O)O)C2)c1C [Example 2081]
Result :: 7.05 to 7.70

Query :: Requested read-out: pIC50. Entry: Cc1c(COc2cc(OCc3cncc(C#N)c3)c(CO)cc2Cl)cccc1-c1cccc(COc2cc(OCc3cncc(C#N)c3)c(CN[C@@H](CO)CC(=O)O)cc2Cl)c1C [Example 50310]
Result :: 7.05 to 7.70

Query :: Requested read-out: pIC50. Entry: Cc1c(OCCCN(C)C2CC(O)C2)cccc1-c1cccc(OCCCN(C)C2CC(O)C2)c1C (centres unmarked) [Example 2090]
Result :: 7.05 to 7.70

Query :: Requested read-out: pIC50. Entry: Cc1cc(OCCCN2CC[C@@H](O)C2)ccc1-c1cccc(OCCCN2CC[C@@H](O)C2)c1C [Example 3006]
Result :: 5.00 to 6.00

====

target: PD-1/PD-L1 interaction (PD-1-Ig / PD-L1-His) (Homo sapiens, UniProt Q9NZQ7); construct: hPDL1(18-239)-TVMV-His; TVMV protease site linker (C); made in house; host or cells: HEK293T; test: PD-1/PD-L1 Homogenous Time-Resolved Fluorescence (HTRF) binding assay; conditions: IC50 range class; PD-L1-His 10 nM, PD-1-Ig 20 nM; read-out: Range or IC50
Reported IC50 values are given for each entry in this list.

Query :: Requested read-out: IC50. Entry: Cc1c(COc2cc(OCc3cncc(C#N)c3)c(CNCC(O)CC(=O)O)cc2Cl)cccc1-c1cccc(COc2cc(OCc3cncc(C#N)c3)c(CNCC(O)CC(=O)O)cc2Cl)c1C (stereo not drawn) [Example 40230]
Result :: 0.04 to 20 nM

Query :: Requested read-out: IC50. Entry: N#Cc1cncc(COc2cc(OCc3cccc(-c4cccc(COc5cc(OCc6cncc(C#N)c6)c(CN6CCCCC6)cc5Cl)c4)c3)c(Cl)cc2CN2CCCCC2)c1 [Example 40060]
Result :: 20.1 to 90 nM

***
Query :: Requested read-out: IC50. Entry: Cc1c(OCCCNCCn2cccn2)cccc1-c1cccc(OCCCN2CC[C@@H](O)C2)c1C [Example 2008]
Result :: 90.1 to 1000 nM

Where do the numbers come from? From patent US10144706B2.
